Documented IC50 across a set of compounds
# ASSAY: cells
# EXPERIMENTAL_CONDITIONS: Homo sapiens, DLD-1, 240 h, read-out: Cell viability assay IC50 (nM), CTG assay, CellTiter Glo, read on Day 10; cell line not given
MEASURED_ENDPOINT: IC50 (nM)

[
  {
    "COMPOUND": "COc1cnc(Cl)cc1-c1cc(C)ncc1C(=O)Nc1nc2c(F)cc(C3=CCC(O)CC3)cc2s1 (stereo not shown) [Example 13]",
    "RESULT_NUMBER": 5.84
  },
  {
    "COMPOUND": "COc1cnc(Cl)cc1-c1cc(C)ncc1C(=O)Nc1nc2ccc(N3CCC(CO)CC3)nc2s1 [Example 128]",
    "RESULT_NUMBER": 39.8
  },
  {
    "COMPOUND": "COc1cnc(C(F)F)cc1-c1cc(C)ncc1C(=O)Nc1nc2cnc(N3CC4(CC(O)C4)C3)nc2s1 [Example 199]",
    "RESULT_NUMBER": 31.6
  },
  {
    "COMPOUND": "COc1cnc(Cl)cc1-c1cc(C)ncc1C(=O)Nc1nc2cnc(-c3nnc(C)o3)cc2s1 [Example 206]",
    "RESULT_NUMBER": 13.6
  }
]

---

# ASSAY: cells
# EXPERIMENTAL_CONDITIONS: Homo sapiens, DLD-1, 240 h, read-out: Cell viability assay IC50 (nM), CTG on Day 10; cell line not given (method: DLD1 and DLD1^-/- cells)
Documented IC50 across a set of molecules

[
  {
    "MOLECULE": "COc1cnc(Cl)cc1-c1cc(C)ncc1C(=O)Nc1nc2cc(C3=CCC(O)CC3)cnc2s1 (centres unmarked)",
    "IC50": "> 1000 nM"
  },
  {
    "MOLECULE": "COc1cnc(Cl)cc1-c1cc(C)ncc1C(=O)Nc1nc2cc[nH]c2s1",
    "IC50": "> 1000 nM"
  },
  {
    "MOLECULE": "COc1cnc(Cl)cc1-c1cc(C)ncc1C(=O)Nc1nc2ccc(N3CCC(O)CC3)cc2s1",
    "IC50": "< 100 nM"
  },
  {
    "MOLECULE": "COc1cnc(Cl)cc1-c1cc(C)ncc1C(=O)Nc1nc2ccc(C3=CCN(C)CC3)nc2s1",
    "IC50": "100 to 500 nM"
  },
  {
    "MOLECULE": "COc1cnc(Cl)c(F)c1-c1cc(C)ncc1C(=O)Nc1nc2ncc(N3CCOCC3)cc2s1",
    "IC50": "< 100 nM"
  },
  {
    "MOLECULE": "Cc1cc(-c2c(F)cccc2OC(F)F)c(C(=O)Nc2nc3ccc(C4=CCC(O)CC4)nc3s2)cn1 (centres unmarked)",
    "IC50": "< 100 nM"
  },
  {
    "MOLECULE": "COc1cnc(Cl)cc1-c1cc(C)ncc1C(=O)Nc1nc2ncc(C3=CCC(O)CC3)nc2s1 (centres unmarked)",
    "IC50": "< 100 nM"
  },
  {
    "MOLECULE": "COc1cnc(Cl)cc1-c1cc(C)ncc1C(=O)Nc1nc2ccc(C3=CCC(O)CC3)c(F)c2s1 (centres unmarked)",
    "IC50": "< 100 nM"
  },
  {
    "MOLECULE": "COc1cnc(Cl)cc1-c1cc(C)ncc1C(=O)Nc1nc2ncc(-c3ccc(N4CCNCC4)cc3)cc2s1",
    "IC50": "< 100 nM"
  },
  {
    "MOLECULE": "COc1cnc(Cl)cc1-c1cc(C)ncc1C(=O)Nc1nc2ncc(C3=CCC4(CC3)COC4)cc2s1",
    "IC50": "< 100 nM"
  },
  {
    "MOLECULE": "[2H]COc1cnc(Cl)cc1-c1cc(C)ncc1C(=O)Nc1nc2cnc(C3=CCC(O)CC3)cc2s1 (centres unmarked)",
    "IC50": "< 100 nM"
  },
  {
    "MOLECULE": "COc1cnc(Cl)cc1-c1cc(C)ncc1C(=O)Nc1nc2cnc(C3=CCC(O)CC3)cc2s1 (centres unmarked)",
    "IC50": "< 100 nM"
  },
  {
    "MOLECULE": "COc1cnc(Cl)cc1-c1cc(C)ncc1C(=O)Nc1nc2ncc(-c3ccc(=O)[nH]c3)cc2s1",
    "IC50": "> 1000 nM"
  },
  {
    "MOLECULE": "COc1cnc(Cl)cc1-c1cc(C)ncc1C(=O)Nc1nc2ncc(N3CCC(O)(CO)CC3)cc2s1",
    "IC50": "100 to 500 nM"
  },
  {
    "MOLECULE": "COc1cnc(Cl)cc1-c1cc(C)ncc1C(=O)Nc1nc2ncc(N3CCN(S(C)(=O)=O)CC3)cc2s1",
    "IC50": "< 100 nM"
  },
  {
    "MOLECULE": "COc1cnc(Cl)cc1-c1cc(C)ncc1C(=O)Nc1nc2cc(F)c(C3=CCC(O)CC3)cc2s1 (centres unmarked)",
    "IC50": "< 100 nM"
  },
  {
    "MOLECULE": "COc1cnc(Cl)cc1-c1cc(C)ncc1C(=O)Nc1nc2ncc(C3=CCNCC3)cc2s1",
    "IC50": "> 1000 nM"
  },
  {
    "MOLECULE": "COc1cnc(Cl)cc1-c1cc(C)ncc1C(=O)Nc1nc2ncc(N3CCC(NS(C)(=O)=O)CC3)cc2s1",
    "IC50": "> 1000 nM"
  },
  {
    "MOLECULE": "COc1cnc(Cl)cc1-c1cc(C)ncc1C(=O)Nc1nc2ccc(-c3c(C)cnn3C)nc2s1",
    "IC50": "< 100 nM"
  },
  {
    "MOLECULE": "COc1cnc(Cl)cc1-c1cc(C)ncc1C(=O)Nc1nc2ncc(N3CC[C@@H](O)[C@H](F)C3)cc2s1",
    "IC50": "100 to 500 nM"
  },
  {
    "MOLECULE": "COc1cnc(Cl)cc1-c1cc(C)ncc1C(=O)Nc1nc2ccc(N3CCC(O)CC3)c(F)c2s1",
    "IC50": "< 100 nM"
  },
  {
    "MOLECULE": "COc1cnc(Cl)cc1-c1cc(C)ncc1C(=O)Nc1nc2ccc(-c3ccncc3C)nc2s1",
    "IC50": "< 100 nM"
  },
  {
    "MOLECULE": "COc1cnc(Cl)cc1-c1cc(C)ncc1C(=O)Nc1nc2ncc(C3=CCC(NC(C)=O)CC3)cc2s1 (centres unmarked)",
    "IC50": "< 100 nM"
  },
  {
    "MOLECULE": "COc1cnc(Cl)cc1-c1cc(C)ncc1C(=O)Nc1nc2ncc(S(C)(=O)=O)cc2s1",
    "IC50": "500 to 1000 nM"
  },
  {
    "MOLECULE": "COc1cnc(Cl)cc1-c1cc(C)ncc1C(=O)Nc1nc2ccc(C3=CCC(O)CC3)cc2s1 (centres unmarked)",
    "IC50": "< 100 nM"
  },
  {
    "MOLECULE": "COc1cnc(Cl)cc1-c1cc(C)ncc1C(=O)Nc1nc2ncc(C(=O)N3CCC(O)CC3)cc2s1",
    "IC50": "> 1000 nM"
  }
]

---

# ASSAY: cells
# EXPERIMENTAL_CONDITIONS: Homo sapiens, DLD-1, 240 h, read-out: Cell viability assay IC50 (nM), CTG assay, CellTiter Glo, read on Day 10; cell line not given
# true (1) = IC50 below 100 nM (exclusive); false (0) = IC50 at/above 100 nM

[
  {
    "LINE_NOTATION": "COc1cnc(Cl)cc1-c1cc(C)ncc1C(=O)Nc1nc2ncc(CC(C)(C)O)cc2s1",
    "CATEGORY_LABEL": "false (0)"
  },
  {
    "LINE_NOTATION": "COc1cnc(Cl)cc1-c1cc(C)ncc1C(=O)Nc1nc2cc(F)c(-c3ccc(P4(=O)CCCC4)cc3)cc2s1",
    "CATEGORY_LABEL": "true (1)"
  },
  {
    "LINE_NOTATION": "COc1cnc(Cl)cc1-c1cc(C)ncc1C(=O)Nc1nc2ncc(-n3ccccc3=O)cc2s1",
    "CATEGORY_LABEL": "false (0)"
  },
  {
    "LINE_NOTATION": "COc1cnc(C(F)F)cc1-c1cc(C)ncc1C(=O)Nc1nc2cnc(-c3c(C)noc3C)cc2s1",
    "CATEGORY_LABEL": "true (1)"
  },
  {
    "LINE_NOTATION": "COc1cnc(Cl)cc1-c1cc(C)ncc1C(=O)Nc1nc2ccc(N3CCc4ccccc43)nc2s1",
    "CATEGORY_LABEL": "false (0)"
  },
  {
    "LINE_NOTATION": "COc1cnc(Cl)cc1-c1cc(C)ncc1C(=O)Nc1nc2ncc(N3CC[C@H](O)[C@H](F)C3)cc2s1",
    "CATEGORY_LABEL": "false (0)"
  },
  {
    "LINE_NOTATION": "COc1cnc(Cl)cc1-c1cc(C)ncc1C(=O)Nc1nc2ncc(C3=CCC4(CC3)CN(C(C)=O)C4)cc2s1",
    "CATEGORY_LABEL": "false (0)"
  },
  {
    "LINE_NOTATION": "COc1cnc(Cl)c(F)c1-c1cc(C)ncc1C(=O)Nc1nc2cc(F)c(N3CCC(F)(F)CC3)nc2s1",
    "CATEGORY_LABEL": "true (1)"
  },
  {
    "LINE_NOTATION": "COc1cnc(Cl)c(F)c1-c1cc(C)ncc1C(=O)Nc1nc2ccc(-c3c(C)nnn3C)cc2s1",
    "CATEGORY_LABEL": "true (1)"
  },
  {
    "LINE_NOTATION": "COc1cnc(Cl)cc1-c1cc(C)ncc1C(=O)Nc1nc2ccc(N3CC[C@H](O)C[C@H]3C)nc2s1",
    "CATEGORY_LABEL": "false (0)"
  },
  {
    "LINE_NOTATION": "COc1cnc(Cl)cc1-c1cc(C)ncc1C(=O)Nc1nc2cnc(-c3c(C#N)cnn3C)cc2s1",
    "CATEGORY_LABEL": "true (1)"
  },
  {
    "LINE_NOTATION": "COc1cnc(Cl)cc1-c1cc(C)ncc1C(=O)Nc1nc2ncc(-c3ccc(P(C)(C)=O)cc3)cc2s1",
    "CATEGORY_LABEL": "false (0)"
  },
  {
    "LINE_NOTATION": "COc1cnc(Cl)cc1-c1cc(C)ncc1C(=O)Nc1nc2cc(F)c(-c3ccc(P(C)(C)=O)cc3)cc2s1",
    "CATEGORY_LABEL": "true (1)"
  },
  {
    "LINE_NOTATION": "COc1cnc(Cl)c(F)c1-c1cc(C)ncc1C(=O)Nc1nc2cnc(-c3c(C)nnn3C)c(F)c2s1",
    "CATEGORY_LABEL": "true (1)"
  },
  {
    "LINE_NOTATION": "COc1cnc(Cl)cc1-c1cc(C)ncc1C(=O)Nc1nc2c(s1)CN(Cc1ccncc1)CC2",
    "CATEGORY_LABEL": "false (0)"
  }
]
